From: patent US4350705A

- Test system: spontaneous hypertensive rats (SHR)
- assay-explanation: Hypotensive Action: systolic pressure from tail artery of SHR after oral administration 10 mg/Kg once a day for 2 days
- Type: in vivo, rat
- condition-details: oral 10 mg/Kg, first day, 6 hours, * = significant vs control, P = 0.01
endpoint-label: Blood Pressure (mm Hg) on First Day, after 6 hours
Numbers only, in mm Hg.

Study these solved cases before continuing.
CC1(C)Oc2ccc(CCC(=O)C3C(=O)CC(c4ccccc4)CC3=O)cc2O1 (stereo not drawn): 207
COc1ccc(C2CC(=O)C(C(=O)CCc3ccc(O)c(O)c3)C(=O)C2)cc1 (stereo not drawn): 212
O=C(Cc1ccc(Cl)cc1)C1C(=O)CC(c2ccccc2)CC1=O (stereo not drawn): 215
O=C(CCc1ccc(O)c(O)c1)C1C(=O)CC(c2ccccc2)CC1=O (stereo not drawn): 204
O=C(CCc1ccccc1Cl)C1C(=O)CC(c2ccccc2)CC1=O (stereo not drawn): 200
O=C(Cc1ccccc1)C1C(=O)CC(c2ccccc2)CC1=O (stereo not drawn) [drawing 31]: 183

For each listed entry, give its Blood Pressure (mm Hg) on First Day, after 6 hours.
1. Cc1ccc(C2CC(=O)C(C(=O)CCc3ccc4c(c3)OCO4)C(=O)C2)cc1 (stereo not drawn) [drawing 21]
2. COc1ccc(CCC(=O)C2C(=O)CC(c3ccccc3)CC2=O)cc1 (stereo not drawn)
3. CC(=O)Oc1ccc(CCC(=O)C2C(=O)CC(c3ccccc3)CC2=O)cc1OC(C)=O (stereo not drawn)
4. O=C(CCc1ccc2c(c1)OC(c1ccccc1)(c1ccccc1)O2)C1C(=O)CC(c2ccccc2)CC1=O (stereo not drawn)
5. O=C(CCc1ccc2c(c1)OCO2)C1C(=O)CC(c2ccccc2)CC1=O (stereo not drawn) [drawing 20]

RESULT:
198
209
195
202
205

QUERY: Returns the measured Blood Pressure (mm Hg) on First Day, after 6 hours for the input molecule. Input: COc1ccccc1C1CC(=O)C(C(=O)CCc2ccc3c(c2)OCO3)C(=O)C1 (stereo not drawn)
RESULT: 210
